Target: human GAL2 receptor (Homo sapiens)
Construct: expressed in transfected cells
Sequence (O43603 1-387): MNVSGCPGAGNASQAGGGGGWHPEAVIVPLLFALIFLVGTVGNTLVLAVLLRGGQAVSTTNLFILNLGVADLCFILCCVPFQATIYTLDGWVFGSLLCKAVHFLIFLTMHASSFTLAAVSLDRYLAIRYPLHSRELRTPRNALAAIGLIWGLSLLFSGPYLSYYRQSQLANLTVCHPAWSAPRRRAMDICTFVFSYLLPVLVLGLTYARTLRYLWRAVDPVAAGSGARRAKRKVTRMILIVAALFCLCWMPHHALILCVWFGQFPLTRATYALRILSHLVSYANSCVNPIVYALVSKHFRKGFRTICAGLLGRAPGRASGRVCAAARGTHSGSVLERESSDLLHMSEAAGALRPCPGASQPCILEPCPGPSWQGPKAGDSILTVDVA
Assay: Radioligand binding at cloned human GAL2 receptor
Conditions: pyrimidines, read-out: Ki GalR2
pKi: −log10 of the molar value.
Answer n if pKi is under 6, and y if it is 6 or more.

Cc1ccc(Nc2cc(N(C)C)nc(N3CCC(O)(c4ccccc4)CC3)n2)cc1 : n
Cc1ccc(Nc2cc(N3CCCCC3)nc(N(C)C3CCCCC3)n2)cc1 : y
Cc1ccc(Nc2cc(N(C)C)nc(N3CCC(c4ccccc4)CC3)n2)cc1 : n
Cc1cc(Nc2cc(N(C)C)nc(Nc3ccccc3)n2)ccc1Cl : n
Cc1ccc(Nc2cc(N3CCCCC3)nc(N3CCC(c4ccccc4)CC3)n2)cc1 : n

Can Cc1ccc(Nc2cc(N(C)C)nc(N3CCN(c4ncccc4C(F)(F)F)CC3)n2)cc1 be said to have pKi at or above 6?
y

Can Cc1ccc(Nc2cc(N(C)C)nc(N(C)c3ccc(C)cc3)n2)cc1 be said to have pKi at or above 6?
n

Can Cc1ccc(Nc2cc(N3CCCCC3)nc(N3CCCC3)n2)cc1 be said to have pKi at or above 6?
y
